Taken from PubChem BioAssay.

Each record here notes measured nuclei count.
- Test summary: reduction of polyQ htt aggregates in cells – imaging, exon1htt(103Q)mCFP cells, high-content imaging, primary screen (AID 483);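 also: compound exposure lasted 3 days before fixation; percent of the per-plate median nuclei count of sample wells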
- Setup conditions: exon1htt(103Q)mCFP cell line, aggregate imaging, at 2 µM; measured here: cell count, toxicity
Express your answer in %, writing the number without its unit.

Previously resolved entries follow.
1) Cc1cc(C(=O)Nc2nnc(C(F)(F)F)s2)no1: 98
2) Cc1c(CNCc2cccs2)c(C(=O)O)c(C)n1Cc1ccccc1: 115
3) O=C(CSc1nc2ccccc2c(=O)n1Cc1ccco1)NCc1ccccc1: 87.8
4) C=CCc1ccccc1OCC(O)CN1CCN(Cc2ccc3c(c2)OCO3)CC1 (stereo not drawn): 91.2
5) CC1Cc2nc(SCC(N)=O)n(Cc3ccccc3)c(=O)c2S1 (stereo not drawn): 90.7

Alright, here's another compound for you.
Need nuclei count of COc1ccc(CC(=O)Nc2ccc(OC)c(NC(=O)c3ccco3)c2)cc1 , thanks. 99.6
